Let's look at some compounds and their measured IC50.
Tested on: BHK-21 cells
method-summary: Anti-fibrosis activity test: inhibition of BHK-21 cell proliferation (CCK-8)
Format: cell-based
assay-setup: Mesocricetus auratus, BHK-21, 48 h, CCK-8, 48 hours after administration
Procedure: BHK-21 cells in exponential growth phase were selected. After the fusion growth reached 85-95%, normal passage method was utilized to digest and collect the cells, followed by cell counting and adjusting the cell density to 2×10^4 cells/mL. […] 10 μL of CCK-8 solution ( 1/10 of the volume of the culture solution) was added to each well 48 hours after the administration, and incubated for 2 hours. The absorbance (A) of each well was determined by a microplate reader at 450 nm wavelength. […]

Here's what some known entries look like.
>>> reported_result("COc1cccc2c(=O)c3c([nH]c12)-c1cccn1C3=O [Compound 446a]")
"0.05 to 5 mM"
>>> reported_result("O=C1c2c(n(C(=O)c3ccco3)c3cc(N4CCNCC4)c(F)cc3c2=O)-c2cccn21 [Compound 343a]")
"0.05 to 5 mM"
>>> reported_result("O=C1c2c(n(Cc3ccc(F)cc3)c3cc(Cl)ccc3c2=O)-c2cccn21 [Compound 502a]")
"0.05 to 5 mM"
>>> reported_result("O=C1c2c(n(CCN3CCNCC3)c3ccccc3c2=O)-c2cccn21 [Compound 98a]")
"< 0.05 mM"
>>> reported_result("O=C1c2c(nc3cc(C(F)(F)F)ccc3c2O)-c2cccn21 [Compound 536b]")
"0.05 to 5 mM"
>>> reported_result("O=C1c2c(n(Cc3ccccc3Cl)c3cc(C(F)(F)F)ccc3c2=O)-c2cccn21 [Compound 546a]")
"< 0.05 mM"

Exercise: Fill blank: measured IC50 of the compound O=C1c2c(nc3ccccc3c2OCc2cc(F)c(F)cc2F)-c2cccn21 [Compound 585b] is ____.
Key: 0.05 to 5 mM

Exercise: Fill blank: measured IC50 of the compound O=C1c2c(n(Cc3cccc(Cl)c3)c3cc(C(F)(F)F)ccc3c2=O)-c2cccn21 [Compound 545a] is ____.
Key: 0.05 to 5 mM

* * *

Tested on: BHK-21 cells
method-summary: Anti-fibrosis activity test: inhibition of BHK-21 cell proliferation (CCK-8)
Assay type: cell-based
assay-setup: Mesocricetus auratus, BHK-21, 48 h, CCK-8, 48 hours after administration
Let's look at some compounds and their measured IC50.

Here's what some known entries look like.
>>> reported_result("O=C1c2c(n(Cc3cccc(Cl)c3F)c3ccccc3c2=O)-c2cccn21 [Compound 582a]")
"0.05 to 5 mM"
>>> reported_result("O=C1c2c(nc3ccccc3c2OCc2ccc(F)cc2Cl)-c2cccn21 [Compound 572b]")
"0.05 to 5 mM"
>>> reported_result("CC(C)=CCOc1c2c(nc3ccccc13)-c1cccn1C2=O")
"5 to 20 mM"
>>> reported_result("N#Cc1cccc2c(O)c3c(nc12)-c1cccn1C3=O [Compound 447b]")
"0.05 to 5 mM"
>>> reported_result("N#Cc1cccc2c1c(=O)c1c(n2Cc2ccc(F)cc2)-c2cccn2C1=O [Compound 462a]")
"< 0.05 mM"
>>> reported_result("O=C1c2c(n(Cc3ccc(Cl)cc3)c3cccc(Cl)c3c2=O)-c2cccn21 [Compound 477a]")
"0.05 to 5 mM"
>>> reported_result("O=C1c2c(nc3cccc(C(F)(F)F)c3c2O)-c2cccn21 [Compound 479b]")
"0.05 to 5 mM"
>>> reported_result("O=C1c2c(n(CCc3ccccc3)c3ccc(F)cc3c2=O)-c2cccn21 [Compound 141a]")
"0.05 to 5 mM"
>>> reported_result("N#Cc1ccc2c(=O)c3c(n(Cc4ccc(F)cc4)c2c1)-c1cccn1C3=O [Compound 514a]")
"< 0.05 mM"
>>> reported_result("O=C1c2c(n(-c3ccc(F)cc3)c3ccc(C(F)(F)F)cc3c2=O)-c2cccn21 [Compound 259a]")
"0.05 to 5 mM"

Exercise: Fill blank: measured IC50 of the compound O=C1c2c(nc3ccccc3c2OCc2ccc(Br)cc2F)-c2cccn21 [Compound 606b] is ____.
Key: 0.05 to 5 mM

Exercise: Fill blank: measured IC50 of the compound O=C1c2c(n(Cc3ccccc3)c3ccccc3c2=O)-c2cccn21 [Compound 103a] is ____.
Key: 0.05 to 5 mM

Exercise: Fill blank: measured IC50 of the compound Cn1c2c(c(=O)c3ccc(N4CCNCC4)cc31)C(=O)n1cccc1-2 [Compound 328a] is ____.
Key: < 0.05 mM

Exercise: Fill blank: measured IC50 of the compound O=C1c2c(n(CCO)c3ccccc3c2=O)-c2cccn21 [Compound 11a] is ____.
Key: 0.05 to 5 mM
